Provenance of the data: the supplement of paper PMC9694430

What thermal shift delta Tm was measured for each of the following?
Test system: LOC_OS01G57100-cb003
Assay: thermal shift delta Tm vs DMSO control; higher = stronger stabilization (binding);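 also: purified Escherichia coli-expressed rice kinase domain construct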
Conditions: 12.5 µM; protein concentration 2 µM
Response body: numeric value in °C, unit text excluded.

Lookup: # query: thermal shift delta Tm of entry `Cc1cc(Nc2cc(N)ncn2)c(=O)n2c1C(=O)NC21CCCCC1`
Found: 1.68

Lookup: # repeat for `CN(C)S(=O)(=O)c1ccc2c(c1)/C(=C/c1cc3c([nH]1)CCCC3)C(=O)N2`
Found: 6.51

Lookup: # repeat for `NC(=O)c1cnc(N[C@@H]2CCCC[C@@H]2N)nc1Nc1cccc(-n2nccn2)c1`
Found: 2.55

Lookup: # repeat for NC(=O)c1ncn([C@@H]2O[C@H](CO)[C@@H](O)[C@H]2O)c1N [AICAR (Acadesine)]
Found: 1.35

Lookup: # repeat for Nc1ccc(-c2ccc3ncc4ccc(=O)n(-c5cccc(C(F)(F)F)c5)c4c3c2)cn1 [Torin 2]
Found: 0.64

Lookup: # repeat for `Oc1ccc(Nc2nc(-c3ccc(Cl)cc3)cs2)cc1`
Found: -1.22

Lookup: # repeat for COc1cc2ncc(-c3ccccc3)nc2cc1OC [Tyrphostin AG 1296]
Found: 0.4

Lookup: # repeat for `CC(C)Nc1cc(-c2c[nH]c(C(=O)N[C@H](CO)c3cccc(Cl)c3)c2)c(Cl)cn1`
Found: 2.03

Lookup: # repeat for O=C(/C=C/c1ccc(O)c(O)c1)c1ccc(O)cc1O [Butein]
Found: 4.85

----------
What thermal shift delta Tm was measured for each of the following?
System: LOC_OS05G28520-cb001
Assay: thermal shift delta Tm vs DMSO control; higher = stronger stabilization (binding)
Conditions: 12.5 µM; protein concentration 2 µM
Response body: numeric value in °C, unit text excluded.

Lookup: # query: thermal shift delta Tm of entry COc1cc(Nc2c(C#N)cnc3cc(OCCCN4CCN(C)CC4)c(OC)cc23)c(Cl)cc1Cl [Bosutinib (SKI-606)]
Found: 0.48

Lookup: # repeat for `Cc1cccc(CC(=O)N2CCc3c2ccc(-c2cn(C)c4ncnc(N)c24)c3F)n1`
Found: 0.62

Lookup: # repeat for `Cc1c[nH]c(/C=C2\C(=O)Nc3ccccc32)c1CCC(=O)O`
Found: 0.67

Lookup: # repeat for O=c1cc(-c2ccccc2)oc2c(O)c(O)ccc12 [7,8-Dihydroxyflavone]
Found: 2.12

Lookup: # repeat for `CC1(COc2ccc3c(c2)ncn3-c2ccc3cccc(N4CCC(N)CC4)c3n2)COC1`
Found: 0.28

Lookup: # repeat for `O=C(O)c1ccc(-c2c[nH]c3ncc(-c4ccccc4)cc23)cc1C1CCCC1`
Found: 1.1

Lookup: # repeat for CC#CC(=O)N1CCC[C@H]1c1nc(-c2ccc(C(=O)Nc3ccccn3)cc2)c2c(N)nccn12 [Acalabrutinib (ACP-196)]
Found: 0.31

Lookup: # repeat for CS(=O)(=O)CCNCc1ccc(-c2ccc3ncnc(Nc4ccc(OCc5cccc(F)c5)c(Cl)c4)c3c2)o1 [Lapatinib]
Found: 0.22

----------
Tested on: LOC_OS02G45750-cb003
Test: thermal shift delta Tm vs DMSO control; higher = stronger stabilization (binding)
Details: 12.5 µM; protein concentration 2 µM
measured_endpoint: thermal shift delta Tm (°C)
Response body: numeric value in °C, unit text excluded.

Lookup: Test system LOC_OS02G45750-cb003; read-out thermal shift delta Tm; what value for `COc1cc(OC)c(/C=C/S(=O)(=O)Cc2ccc(OC)c(NCC(=O)O)c2)c(OC)c1` ?
Found: 0.52

Lookup: # repeat for `CCCCOc1c(C(=O)c2c(F)cc(C)cc2F)c[nH]c2nncc1-2`
Found: 0.73

Lookup: # repeat for `CCN(CC)CCCCNc1ncc2cc(-c3cc(OC)cc(OC)c3)c(NC(=O)NC(C)(C)C)nc2n1`
Found: 1.08

Lookup: # repeat for CC(C)c1cnn2c(NCc3ccccc3-n3cccn3)nc(OC3CCCNC3)nc12 (stereo not given)
Found: 0.32

Lookup: # repeat for Cc1cn(-c2cc(NC(=O)c3ccc(C)c(Nc4nccc(-c5cccnc5)n4)c3)cc(C(F)(F)F)c2)cn1 [Nilotinib (AMN-107)]
Found: 0.19
